Each record here notes measured Biodistribution Pancreas.
Test system: LNCaP tumor-bearing male CB-17 SCID mice
method: Biodistribution 1 h p.i.
Assay type: in vivo
Lab book: enter the figure in % ID/g, no units written.

CC(C)(C)[Si]([18F])(c1ccc(C(=O)NC[C@H](NC(=O)CC[C@H](C(=O)O)N2CCN(CC(=O)[O-])CCN(CC(=O)[O-])CCN(CC(=O)[O-])CC2)C(=O)N[C@H](CCCCNC(=O)CCC(=O)NCCC[C@@H](NC(=O)CC[C@H](NC(=O)N[C@@H](CCC(=O)O)C(=O)O)C(=O)O)C(=O)O)C(=O)O)cc1)C(C)(C)C.[Ga+3] [[^18F, ^natGa]rhPSMA-7.2] | 0.21
CC(C)(C)[Si]([18F])(c1ccc(C(=O)NC[C@H](NC(=O)CC[C@@H](C(=O)O)N2CCN(CC(=O)[O-])CCN(CC(=O)[O-])CCN(CC(=O)[O-])CC2)C(=O)N[C@H](CCCCNC(=O)CCC(=O)NCCC[C@@H](NC(=O)CC[C@H](NC(=O)N[C@@H](CCC(=O)O)C(=O)O)C(=O)O)C(=O)O)C(=O)O)cc1)C(C)(C)C.[Ga+3] [[^18F, ^natGa]rhPSMA-7.4] | 0.50
CC(C)(C)[Si]([18F])(c1ccc(C(=O)NC[C@@H](NC(=O)CC[C@H](C(=O)O)N2CCN(CC(=O)[O-])CCN(CC(=O)[O-])CCN(CC(=O)[O-])CC2)C(=O)N[C@H](CCCCNC(=O)CCC(=O)NCCC[C@@H](NC(=O)CC[C@H](NC(=O)N[C@@H](CCC(=O)O)C(=O)O)C(=O)O)C(=O)O)C(=O)O)cc1)C(C)(C)C.[Ga+3] [[^18F, ^natGa]rhPSMA-7.1] | 0.45

The record that follows has no Biodistribution Pancreas shown yet.
Identify the measured Biodistribution Pancreas of CC(C)(C)[Si]([18F])(c1ccc(C(=O)NC[C@@H](NC(=O)CC[C@@H](C(=O)O)N2CCN(CC(=O)[O-])CCN(CC(=O)[O-])CCN(CC(=O)[O-])CC2)C(=O)N[C@H](CCCCNC(=O)CCC(=O)NCCC[C@@H](NC(=O)CC[C@H](NC(=O)N[C@@H](CCC(=O)O)C(=O)O)C(=O)O)C(=O)O)C(=O)O)cc1)C(C)(C)C.[Ga+3] [[^18F, ^natGa]rhPSMA-7.3] for LNCaP tumor-bearing male CB-17 SCID mice. 0.63

###

Reported values of Biodistribution Stomach for individual entries
Test system: LNCaP tumor-bearing male CB-17 SCID mice
method: Biodistribution 1 h p.i. with competition (co-injection of 2-PMPA)
Type: in vivo
details: co-injected with 2-PMPA (8 mg/kg), n = 3
Use % ID/g as the unit, but write only the number.

Any idea what its Biodistribution Stomach is? The molecule is CC(C)(C)[Si]([18F])(c1ccc(C(=O)NC[C@@H](NC(=O)CC[C@@H](C(=O)O)N2CCN(CC(=O)[O-])CCN(CC(=O)[O-])CCN(CC(=O)[O-])CC2)C(=O)N[C@H](CCCCNC(=O)CCC(=O)NCCC[C@@H](NC(=O)CC[C@H](NC(=O)N[C@@H](CCC(=O)O)C(=O)O)C(=O)O)C(=O)O)C(=O)O)cc1)C(C)(C)C.[Ga+3] [[^18F, ^natGa]rhPSMA-7.3] 0.76

Requested field: Biodistribution Stomach. Item: CC(C)(C)[Si]([18F])(c1ccc(C(=O)NC[C@H](NC(=O)CC[C@H](C(=O)O)N2CCN(CC(=O)[O-])CCN(CC(=O)[O-])CCN(CC(=O)[O-])CC2)C(=O)N[C@H](CCCCNC(=O)CCC(=O)NCCC[C@@H](NC(=O)CC[C@H](NC(=O)N[C@@H](CCC(=O)O)C(=O)O)C(=O)O)C(=O)O)C(=O)O)cc1)C(C)(C)C.[Ga+3] [[^18F, ^natGa]rhPSMA-7.2] 0.21

Requested read-out: Biodistribution Stomach. Entry: CC(C)(C)[Si]([18F])(c1ccc(C(=O)NC[C@H](NC(=O)CC[C@@H](C(=O)O)N2CCN(CC(=O)[O-])CCN(CC(=O)[O-])CCN(CC(=O)[O-])CC2)C(=O)N[C@H](CCCCNC(=O)CCC(=O)NCCC[C@@H](NC(=O)CC[C@H](NC(=O)N[C@@H](CCC(=O)O)C(=O)O)C(=O)O)C(=O)O)C(=O)O)cc1)C(C)(C)C.[Ga+3] [[^18F, ^natGa]rhPSMA-7.4] 0.20

What value of Biodistribution Stomach has been reported for the following molecule? CC(C)(C)[Si]([18F])(c1ccc(C(=O)NC[C@@H](NC(=O)CC[C@H](C(=O)O)N2CCN(CC(=O)[O-])CCN(CC(=O)[O-])CCN(CC(=O)[O-])CC2)C(=O)N[C@H](CCCCNC(=O)CCC(=O)NCCC[C@@H](NC(=O)CC[C@H](NC(=O)N[C@@H](CCC(=O)O)C(=O)O)C(=O)O)C(=O)O)C(=O)O)cc1)C(C)(C)C.[Ga+3] [[^18F, ^natGa]rhPSMA-7.1] 0.97
